B1: CPEB3 Ribozyme (parent)
chain: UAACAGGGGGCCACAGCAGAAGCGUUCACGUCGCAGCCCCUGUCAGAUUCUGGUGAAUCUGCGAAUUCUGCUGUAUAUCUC

# Variants of: B1
# assay: self-cleavage, relative activity (ratio to wild type); higher = more cleavage; in vitro, sequencing
# self-cleavage values compiled below
Please give the numeric answer without any surrounding text.

Solved cases below.
// self-cleavage value for U41C U72A : 0.79

// self-cleavage value for U43G A65G : 0.34

// self-cleavage value for C37A C38A : 0.27

More entries:
// self-cleavage value for G22U U72A : 0.15

// self-cleavage value for G53U U54A : 0.98

// self-cleavage value for G19U A56G : 0.5

// self-cleavage value for A5G C14U : 0.8

// self-cleavage value for U54A U67C : 0.46

// self-cleavage value for U31C A35U : 0.32

// self-cleavage value for C40U U43A : 0.92

// self-cleavage value for U48C C71U : 0.32
